# Tested on: NanoLuc luciferase (engineered Oplophorus gracilirostris luciferase)
# procedure text: Confirmatory Nanoluciferase (NLuc) qHTS assay for identification of artifact compounds.
# test conditions: secreted NLuc in S16 cell medium, luminescence, 5 min; series mostly up to 39 µM
Results filed as inconclusive are left out. Calls of active or inactive are those of the source. Calls follow the shape of the dose curve; as a rule, active = well fitted curve in the direction sought with a large enough effect; inconclusive = small, poorly fitted or top-dose-only effect, or another doubt; inactive = no such curve, though single readings can be large or run the other way.
Write down one outcome, taken from active, inactive

Worked cases, answers included:
C[C@@H]1C[C@@H]2[C@H]([C@H]3C=C(COC(=O)c4ccccc4)[C@@H](O)[C@]4(O)[C@@H](O)C(OC(=O)c5ccccc5)=C[C@@]14C3=O)C2(C)C
inactive
CC1=C[C@H]2[C@]3(O)C(C=C(CO)C[C@]2(O)C1=O)[C@@H]1C(C)(C)[C@]1(O)[C@H](O)[C@H]3C (stereo not given in full)
inactive
COc1cccc2c1C(=O)c1c(O)c3c(c(O)c1C2=O)CC(O)(C(C)=O)CC3OC1CC(NCc2ccc(CNC3CC(OC4CC(O)(C(C)=O)Cc5c(O)c6c(c(O)c54)C(=O)c4c(OC)cccc4C6=O)OC(C)C3O)cc2)C(O)C(C)O1 (stereo not given)
active
O=P1(N(CCCl)CCCl)NC(OO)CCO1 (stereo not given)
inactive

// query What classification did "CC(C)(O)[C@@H]1[C@H]2OC(=O)[C@@H]1[C@]1(O)C[C@H]3O[C@]34C(=O)O[C@H]2[C@]14C" end up with in this test?
// result inactive

These measurements were taken from PubChem BioAssay AID1845224.
